biological target: UniProtKB Q92847
Non-standard residues stand in square brackets, D forms with d. Residues, ends and D or L forms follow the SMILES beside them. *: point of attachment. d2Nal = N[C@H](Cc1ccc2ccccc2c1)C(=O)O; Benzoyl(4-F) = O=C(c1ccc(F)cc1)*; Propanoyl(2-F) = CC(F)C(=O)*; Aib = CC(C)(N)C(=O)O; Inp = O=C(O)C1CCNCC1
Measured IC50 values are reported for all entries that follow.
Numeric only. Scale: nM

# input Provide the documented IC50 with UniProtKB Q92847 as the system for CC(C)(N)C(=O)N[C@@H](Cc1c[nH]cn1)C(=O)N[C@H](Cc1ccc2ccccc2c1)C(=O)N[C@H](Cc1ccccc1)C(=O)N[C@@H](CCCCNC(=O)c1ccc(F)cc1)C(N)=O [4-FB-Ipamorelin, H-Aib-His-D-2-Nal-D-Phe-Lys(4-FB)-NH2] (H-[Aib]H[d2Nal][dF]K(Benzoyl(4-F))-NH2)
# output 170

# input GET /values?readout=IC50&system=UniProtKB Q92847&item= CC(F)C(=O)NCCCC[C@H](NC(=O)[C@H](CO)NC(=O)[C@@H](Cc1ccc2ccccc2c1)NC(=O)[C@@H](Cc1ccc2ccccc2c1)NC(=O)C1CCNCC1)C(N)=O (stereo partly drawn) [TL-MF-2-2FP, H-Inp-(D-2-Nal)2-Ser-Lys(2-FP)-NH2] (H-[Inp][d2Nal][d2Nal]SK(Propanoyl(2-F))-NH2)
# output 60.3

# input Short answer please: IC50, UniProtKB Q92847, entry C[C@H](N)C(=O)N[C@@H](Cc1c[nH]cn1)C(=O)N[C@H](Cc1ccc2ccccc2c1)C(=O)N[C@@H](C)C(=O)N[C@@H](Cc1c[nH]c2ccccc12)C(=O)N[C@H](Cc1ccccc1)C(=O)N[C@@H](CCCCN)C(N)=O [GHRP-1, H-Ala-His-D-2-Nal-Ala-Trp-D-Phe-Lys-NH2, reference compound] (H-AH[d2Nal]AW[dF]K-NH2)
# output 181

---

Lab note: pIC50 readings collected with GHS-R1a (Homo sapiens, UniProt Q92847) for the following molecules.
Sequence (Q92847 whole entry): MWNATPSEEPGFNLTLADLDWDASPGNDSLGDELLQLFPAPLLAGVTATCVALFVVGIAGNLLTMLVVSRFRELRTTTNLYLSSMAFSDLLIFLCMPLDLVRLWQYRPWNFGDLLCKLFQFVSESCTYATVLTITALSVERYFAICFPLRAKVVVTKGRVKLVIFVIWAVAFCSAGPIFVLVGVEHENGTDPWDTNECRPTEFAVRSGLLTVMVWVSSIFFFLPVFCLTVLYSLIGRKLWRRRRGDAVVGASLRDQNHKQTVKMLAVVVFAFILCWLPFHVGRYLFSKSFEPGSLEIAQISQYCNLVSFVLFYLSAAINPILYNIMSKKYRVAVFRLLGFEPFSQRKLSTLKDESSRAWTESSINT
Non-standard residues stand in square brackets, D forms with d. Residues, ends and D or L forms follow the SMILES beside them. *: point of attachment. d2Nal = N[C@H](Cc1ccc2ccccc2c1)C(=O)O; Benzoyl(4-F) = O=C(c1ccc(F)cc1)*; d2Thi = N[C@H](Cc1cccs1)C(=O)O; Propanoyl(2-F) = CC(F)C(=O)*; Aib = CC(C)(N)C(=O)O; Inp = O=C(O)C1CCNCC1
pIC50 field: float, defined as -log10 of concentration (mol/L).

CC(F)C(=O)NCCCC[C@H](NC(=O)[C@H](Cc1ccc(O)cc1)NC(=O)[C@@H](Cc1ccc2ccccc2c1)NC(=O)[C@@H](Cc1ccc2ccccc2c1)NC(=O)C1CCNCC1)C(N)=O (stereo partly drawn) [TL-MF-3-2FP, H-Inp-D-2-Nal-D-2-Nal-Tyr-Lys(2-FP)-NH2] (H-[Inp][d2Nal][d2Nal]YK(Propanoyl(2-F))-NH2)	9.55
C[C@H](NC(=O)[C@@H](Cc1c[nH]c2ccccc12)NC(=O)[C@@H](N)Cc1c[nH]cn1)C(=O)N[C@@H](Cc1c[nH]c2ccccc12)C(=O)N[C@H](Cc1ccccc1)C(=O)N[C@@H](CCCCNC(=O)c1ccc(F)cc1)C(N)=O [Compound 4-FB-GHRP-6, H-His-D-Trp-Ala-Trp-D-Phe-Lys(4-FB)-NH2] (H-H[dW]AW[dF]K(Benzoyl(4-F))-NH2)	6.42
NCCCC[C@H](NC(=O)[C@H](Cc1ccccc1)NC(=O)[C@@H](Cc1ccc2ccccc2c1)NC(=O)[C@@H](Cc1ccc2ccccc2c1)NC(=O)C1CCNCC1)C(N)=O [Compound G-7039, H-Inp-D-2-Nal-D-2-Nal-Phe-Lys-NH2, reference compound] (H-[Inp][d2Nal][d2Nal]FK-NH2)	8.28
CC(C)(N)C(=O)N[C@@H](Cc1c[nH]cn1)C(=O)N[C@H](Cc1ccc2ccccc2c1)C(=O)N[C@H](Cc1cccs1)C(=O)N[C@@H](CCCCNC(=O)c1ccc(F)cc1)C(N)=O [Thi-4-FB-Ipamorelin, H-Aib-His-D-2-Nal-D-2-Thi-Lys(4-FB)-NH2] (H-[Aib]H[d2Nal][d2Thi]K(Benzoyl(4-F))-NH2)	6.79
NC(=O)[C@H](CCCCNC(=O)c1ccc(F)cc1)NC(=O)[C@@H](Cc1ccccc1)NC(=O)[C@@H](Cc1ccc2ccccc2c1)NC(=O)[C@H](Cc1c[nH]cn1)NC(=O)C1CCNCC1 [Inp-4-FB-Ipamorelin, H-Inp-His-D-2-Nal-D-Phe-Lys(4-FB)-NH2] (H-[Inp]H[d2Nal][dF]K(Benzoyl(4-F))-NH2)	6.16

Here is the next item to consider.
# input What does the data say about its pIC50? Entry: CC(F)C(=O)NCCCC[C@H](NC(=O)[C@H](CO)NC(=O)[C@H](Cc1ccccc1)NC(=O)[C@@H](Cc1ccc2ccccc2c1)NC(=O)[C@@H](Cc1ccc2ccccc2c1)NC(=O)C1CCNCC1)C(N)=O (stereo partly drawn) [TL-MF-4-2FP, H-Inp-(D-2-Nal)2-Phe-Ser-Lys(2-FP)-NH2] (H-[Inp][d2Nal][d2Nal]FSK(Propanoyl(2-F))-NH2)
# output 8.36

---

In this section, each of the molecules is paired with its reported IC50.
target: GHS-R1a (Homo sapiens, UniProt Q92847)
Non-standard residues stand in square brackets, D forms with d. Residues, ends and D or L forms follow the SMILES beside them. *: point of attachment. 1Nal = N[C@@H](Cc1cccc2ccccc12)C(=O)O; d2Nal = N[C@H](Cc1ccc2ccccc2c1)C(=O)O; Benzoyl(4-F) = O=C(c1ccc(F)cc1)*; Propanoyl(2-F) = CC(F)C(=O)*; Inp = O=C(O)C1CCNCC1
Give the quantity in nM, number only.

Solved cases (2 shown):
CC(F)C(=O)NCCCC[C@H](NC(=O)[C@H](Cc1ccccc1)NC(=O)[C@H](CO)NC(=O)[C@@H](Cc1ccc2ccccc2c1)NC(=O)[C@@H](Cc1ccc2ccccc2c1)NC(=O)C1CCNCC1)C(N)=O (stereo partly drawn) [TL-MF-5-2FP, H-Inp-(D-2-Nal)2-Ser-Phe-Lys(2-FP)-NH2] (H-[Inp][d2Nal][d2Nal]SFK(Propanoyl(2-F))-NH2)	62.9
NC(=O)[C@H](CCCCNC(=O)c1ccc(F)cc1)NC(=O)[C@H](Cc1cccc2ccccc12)NC(=O)[C@@H](Cc1ccc2ccccc2c1)NC(=O)[C@@H](Cc1ccc2ccccc2c1)NC(=O)C1CCNCC1 [MMF-01-115-H] (H-[Inp][d2Nal][d2Nal][1Nal]K(Benzoyl(4-F))-NH2)	68.8

Then this molecule:
# input What measured IC50 is associated with NC(=O)[C@H](CCCCNC(=O)c1ccc(F)cc1)NC(=O)[C@H](Cc1ccccc1)NC(=O)[C@@H](Cc1ccc2ccccc2c1)NC(=O)[C@@H](Cc1ccc2ccccc2c1)NC(=O)C1CCNCC1 [Compound 4-FB-G-7039, H-Inp-D-2-Nal-D-2-Nal-Phe-Lys(4-FB)-NH2] (H-[Inp][d2Nal][d2Nal]FK(Benzoyl(4-F))-NH2) on GHS-R1a (Homo sapiens, UniProt Q92847)?
# output 242
